Molecular target: Alpha1a (Homo sapiens)
Sequence (P35348 whole entry): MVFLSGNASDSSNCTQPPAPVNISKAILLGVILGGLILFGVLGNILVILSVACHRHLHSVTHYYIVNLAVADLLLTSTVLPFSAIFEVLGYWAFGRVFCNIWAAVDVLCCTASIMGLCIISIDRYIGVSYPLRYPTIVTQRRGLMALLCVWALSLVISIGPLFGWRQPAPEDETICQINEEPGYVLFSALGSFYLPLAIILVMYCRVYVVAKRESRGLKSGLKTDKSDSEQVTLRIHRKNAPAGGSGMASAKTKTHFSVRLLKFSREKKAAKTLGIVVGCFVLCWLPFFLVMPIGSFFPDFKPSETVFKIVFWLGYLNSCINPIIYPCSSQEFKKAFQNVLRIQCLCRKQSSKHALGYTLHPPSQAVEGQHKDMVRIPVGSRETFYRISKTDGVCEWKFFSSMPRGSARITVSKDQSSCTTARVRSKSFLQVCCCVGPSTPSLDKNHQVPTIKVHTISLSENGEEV
Assay: cell-based
MEASUREMENT_NAME: EC50

// Input: `O=C(O)[C@H]1C2CCC(CC2)[C@@H]1Nc1nc(-c2n[nH]c3ncc(F)cc23)nc(C2CC2)c1F` . Output its EC50 only. > 12 µM

* * *

Read-out record for CK1 alpha (Homo sapiens, UniProt P48729): IC50

>>> df
                                   compound  observed_value
0  O=C(O)[C@H]1C2CCC(CC2)[C@@H]1Nc1nc(-c2n[nH]c3ncc(F)cc23)nc(C2CC2)c1F         > 10 µM

Identify measured IC50 obtained with CK1 alpha (Homo sapiens, UniProt P48729) for O=C(O)[C@H]1C2CCC(CC2)[C@@H]1Nc1nc(-c2c[nH]c3ncc(F)cc23)ncc1F [VX-787, reference compound] . > 10 µM

* * *

Assay: in vivo
Settings: female, BALB/c, mouse, po, 3 mg/kg
MEASUREMENT_NAME: AUC(0-t) (ng·h/mL)
Use ng·h/mL as the unit, but write only the number.

// Input: `O=C(O)[C@H]1C2CCC(CC2)[C@@H]1Nc1nc(-c2n[nH]c3ncc(F)cc23)nc(C2CC2)c1F` . Output its AUC(0-t) only. 1040

* * *

Assay: in vivo
Conditions: both, beagle, dog, po, 5 mg/kg
MEASUREMENT_NAME: Cmax (ng/mL)
Only the number, expressed in ng/mL, is required.

Specify reported Cmax for the molecule shown: O=C(O)[C@H]1C2CCC(CC2)[C@@H]1Nc1nc(-c2n[nH]c3ncc(F)cc23)nc(C2CC2)c1F [ZSP1273] 1450

* * *

Test system: Influenza virus A/Weiss/43(H1N1)
Test: microbe, parasite or virus in culture
Assay type: cell-based
Settings: H1N1, MDCK, read-out: EC50 (mean ± SD)
MEASUREMENT_NAME: pEC50
Schema: pEC50 number; meaning minus log10 of the concentration expressed in molar units.

Some compounds with recorded pEC50:
                                   compound  measurement_name  observed_value
0  O=C(O)[C@H]1C2CCC(CC2)[C@@H]1Nc1nc(-c2c[nH]c3ncc(F)cc23)ncc1F [VX-787, reference compound]             pEC50            9.59
1  CCOC(=O)C1=C[C@@H](OC(CC)CC)[C@H](NC(C)=O)[C@@H](N)C1             pEC50            5.25

Output measured pEC50 for this item: `O=C(O)[C@H]1C2CCC(CC2)[C@@H]1Nc1nc(-c2n[nH]c3ncc(F)cc23)nc(C2CC2)c1F` 10.92

* * *

Molecular target: ABL1 (Homo sapiens, UniProt P00519)
Sequence (P00519 whole entry): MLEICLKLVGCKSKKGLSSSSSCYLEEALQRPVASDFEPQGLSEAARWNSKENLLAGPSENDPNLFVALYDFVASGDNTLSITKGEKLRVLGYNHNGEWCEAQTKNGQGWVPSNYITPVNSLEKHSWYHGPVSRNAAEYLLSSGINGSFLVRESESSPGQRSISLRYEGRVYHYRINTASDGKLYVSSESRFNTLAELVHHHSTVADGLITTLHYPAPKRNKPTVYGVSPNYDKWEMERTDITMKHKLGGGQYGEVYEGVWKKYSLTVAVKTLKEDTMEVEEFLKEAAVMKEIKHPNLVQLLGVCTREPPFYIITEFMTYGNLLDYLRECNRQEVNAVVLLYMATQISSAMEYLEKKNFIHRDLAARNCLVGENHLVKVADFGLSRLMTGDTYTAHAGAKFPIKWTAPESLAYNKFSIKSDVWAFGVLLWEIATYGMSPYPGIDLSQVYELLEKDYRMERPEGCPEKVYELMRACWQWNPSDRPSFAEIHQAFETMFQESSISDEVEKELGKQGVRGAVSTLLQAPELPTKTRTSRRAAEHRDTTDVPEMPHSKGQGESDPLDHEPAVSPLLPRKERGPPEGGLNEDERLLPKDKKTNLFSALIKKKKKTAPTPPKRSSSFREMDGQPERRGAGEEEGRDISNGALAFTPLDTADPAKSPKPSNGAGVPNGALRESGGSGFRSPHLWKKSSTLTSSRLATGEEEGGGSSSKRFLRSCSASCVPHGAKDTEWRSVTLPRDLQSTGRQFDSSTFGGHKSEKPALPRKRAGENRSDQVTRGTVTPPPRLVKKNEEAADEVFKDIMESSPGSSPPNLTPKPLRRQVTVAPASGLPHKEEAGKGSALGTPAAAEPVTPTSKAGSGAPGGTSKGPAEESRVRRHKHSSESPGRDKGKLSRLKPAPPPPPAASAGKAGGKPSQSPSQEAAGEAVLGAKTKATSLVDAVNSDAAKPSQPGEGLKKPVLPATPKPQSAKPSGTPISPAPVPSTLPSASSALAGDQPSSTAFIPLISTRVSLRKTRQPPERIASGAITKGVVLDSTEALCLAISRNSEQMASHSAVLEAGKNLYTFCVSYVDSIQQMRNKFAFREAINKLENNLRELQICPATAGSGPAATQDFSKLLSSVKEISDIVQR
MEASUREMENT_NAME: IC50

In [3]: df
Out[3]:
                                   compound                  experimental_target  observed_value
0  O=C(O)[C@H]1C2CCC(CC2)[C@@H]1Nc1nc(-c2c[nH]c3ncc(F)cc23)ncc1F [VX-787, reference compound]  ABL1 (Homo sapiens, UniProt P00519)         > 10 µM

Then there is this compound:
Param request: IC50 | system ABL1 (Homo sapiens, UniProt P00519) | item `O=C(O)[C@H]1C2CCC(CC2)[C@@H]1Nc1nc(-c2n[nH]c3ncc(F)cc23)nc(C2CC2)c1F` > 10 µM
